Data provenance: paper PMC6892255

- Tested on: E. coli K-12 BW25113
- protocolSummary: MIC / growth inhibition assay (end-point OD600), single agent
- Format: cell-based, Escherichia coli
- measurementParameters: Escherichia coli, BW25113, end-point OD600 after 18 h, read-out: EC50 E. coli (K12 BW25113) Compound only
pEC50: −log10 of the molar value.
attributeMeasured: pEC50

* CCn1cc(C(=O)O)c(=O)c2cnc(N3CCN(C(=S)Nc4ccc(C(F)(F)F)cc4)CC3)nc21 [Compound 4] | < 4.00
* CCn1cc(C(=O)O)c(=O)c2cnc(N3CCN(C(=S)Nc4cccc(C(F)(F)F)c4)CC3)nc21 [Compound 1, reference compound] | < 4.00
* CCn1cc(C(=O)O)c(=O)c2cnc(N3CCN(C(=S)Nc4cc(C(F)(F)F)cc(C(F)(F)F)c4)CC3)nc21 [Compound 3] | < 4.00
* CCn1cc(C(=O)O)c(=O)c2cnc(N3CCN(C(=O)Nc4ccccc4)CC3)nc21 [Compound 15] | < 4.90
